# ASSAY TARGET: UniProt O14842
# ASSAY: Agonist activity at human FFA1 receptor expressed in human U2OS cells co-expressing Galpha16 assessed as calcium mobilization by Fluo-4 dye based FLIPR assay
# Type: functional, cell-based
# MEASUREMENT SETUP: read-out: EC50
MEASUREMENT LABEL: EC50 (µM)
The response must be a number in µM with no trailing unit.

COMPOUND STRING: Cc1cc(CCC(=O)O)cc(C)c1OCc1ccccc1SC(F)(F)F
UNITS SYMBOL: µM
EC50: 21.8
--
COMPOUND STRING: Cc1cc(CCC(=O)O)ccc1OCc1cccc(Oc2ccccc2)c1
UNITS SYMBOL: µM
EC50: 3.84
--
COMPOUND STRING: Cc1cc(CCC(=O)O)ccc1OCc1ccccc1Cl
UNITS SYMBOL: µM
EC50: 11.6

Entry Cc1cc(CCC(=O)O)ccc1OCc1cccc(Cl)c1 ; assay system UniProt O14842; EC50 recorded at 10.3

Entry O=C(O)CCc1ccc(OCc2ccccc2SC(F)(F)F)cc1 ; assay system UniProt O14842; EC50 recorded at 1.42

###

The entries below are paired with their reported EC50.
# ASSAY TARGET: Free fatty acid receptor 1 (Homo sapiens)
# Sequence (O14842 whole entry): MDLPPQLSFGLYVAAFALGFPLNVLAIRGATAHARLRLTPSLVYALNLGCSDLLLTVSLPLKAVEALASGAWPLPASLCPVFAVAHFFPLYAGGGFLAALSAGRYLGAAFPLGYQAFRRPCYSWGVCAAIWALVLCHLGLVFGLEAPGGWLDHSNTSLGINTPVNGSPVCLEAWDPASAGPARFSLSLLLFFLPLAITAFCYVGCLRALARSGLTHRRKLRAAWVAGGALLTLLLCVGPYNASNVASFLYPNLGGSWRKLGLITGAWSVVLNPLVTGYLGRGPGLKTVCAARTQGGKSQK
# ASSAY: Agonist activity at human FFA1 receptor expressed in human U2OS cells co-expressing Galpha16 assessed as calcium mobilization by Fluo-4 dye based FLIPR assay
# Type: functional, cell-based
# MEASUREMENT SETUP: read-out: EC50

Look over these answered cases.
COMPOUND STRING: Cc1ccc(Br)c(COc2ccc(CCC(=O)O)cc2C)c1
EC50: > 30 µM
//
COMPOUND STRING: CC(C)Cc1cc(CCC(=O)O)ccc1OCc1ccccc1SC(F)(F)F
EC50: > 30 µM

Cc1cc(COc2ccc(CCC(=O)O)cc2C)cc(OC(C)C)c1 yielded EC50 of > 30 µM

Cc1cccc(COc2ccc(CCC(=O)O)cc2C)c1 yielded EC50 of > 30 µM

O=C(O)CCc1ccc(OCc2ccccc2SC(F)(F)F)c(CO)c1 yielded EC50 of > 30 µM

Hello, the source for this data is ChEMBL document CHEMBL3994633, in case you need it.
